Test: NCI Yeast Anticancer Drug Screen. Data for the mlh1 rad18 strain (AID 175)
Details: S. cerevisiae mlh1 rad18 strain growth inhibition; at 50.0 µM
Compounds without any hit were thinned out: in the full panel of roughly 79,000, 15% have a hit. Active and inactive are the calls of the source. Cut-off read from the data, not from the text of the source: active = growth inhibition above about 70%; inactive = the rest.
Form entry, call: pick from class 1 = active, class 0 = inactive

Worked set:
Nc1ccccc1C(=O)ONC(=O)c1ccccc1 ... class 1
CN(C)Cc1cc(N=Nc2ccccc2Cl)cc(CN(C)C)c1O ... class 0
CCC(=C(c1ccc(OCc2ccccc2)cc1)c1ccc(OCc2ccccc2)cc1)c1ccc(OC)cc1 ... class 0
CC(C)=C1OC(=O)C1(C)C ... class 0
NC(=O)C(CC(C(N)=O)C(N)=O)C(N)=O ... class 0

*Q* Lab log entry: Cc1ccc(S(=O)(=O)OCC(F)(F)C(F)(F)C(F)(F)CO)cc1 — outcome as called in the assay?
*A* class 0

###

Assay: NCI Yeast Anticancer Drug Screen. Data for the rad50 strain (AID 155);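 note: 0% = growth of vehicle-only cultures of the same strain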
Conditions: S. cerevisiae rad50 strain growth inhibition; at 50.0 µM; stronger effect = higher value
Compounds without any hit were thinned out: in the full panel of roughly 79,000, 15% have a hit.
Output Condition met for growth inhibition not less than 10%; output Condition not met otherwise.

Cc1nn(C(=O)c2ccccn2)c(-c2ccccc2)c1N=Nc1ccc(S(=O)(=O)Nc2ncccn2)cc1 ... Condition met

*Q* Quick check: does O=C1CC2(CCCCC2)C(=O)N1c1cc([N+](=O)[O-])ccn1 have growth inhibition greater than or equal to 10%?
*A* Condition met

*Q* Quick check: does COC(=O)/C=C/c1cccc([N+](=O)[O-])c1 have growth inhibition greater than or equal to 10%?
*A* Condition not met

*Q* Quick check: does COc1ccc(/C(Cl)=C/c2cc(OC)ccc2OC)cc1 have growth inhibition greater than or equal to 10%?
*A* Condition not met

*Q* Quick check: does CCC(=O)Oc1cccc(C)c1 have growth inhibition greater than or equal to 10%?
*A* Condition met

*Q* Quick check: does CC(C)CNC(=S)N/N=C/C=C/c1ccc([N+](=O)[O-])cc1 have growth inhibition greater than or equal to 10%?
*A* Condition not met

###

Assay: NCI Yeast Anticancer Drug Screen. Data for the mlh1 rad18 strain (AID 175)
Details: S. cerevisiae mlh1 rad18 strain growth inhibition; at 50.0 µM
Compounds without any hit were thinned out: in the full panel of roughly 79,000, 15% have a hit. Active and inactive are the calls of the source. Cut-off read from the data, not from the text of the source: active = growth inhibition above about 70%; inactive = the rest.
Form entry, call: pick from active, inactive

NC(N)=N/N=C/c1oc(-c2ccc(S(=O)(=O)O)o2)c(-c2ccc(S(=O)(=O)O)o2)c1[N+](=O)[O-] ... inactive
Cc1c(C(=O)O)sc2ccc([N+](=O)[O-])cc12 ... inactive
CC[n+]1[b-](C(C)(C)C)n(/N=C/C(C)(C)C)[b-](C(C)(C)C)[n+]1CC ... inactive

*Q* Lab log entry: CC(C)c1ccccc1N1C(=O)CC(Sc2ccccc2N)C1=O (centres undefined) — outcome as called in the assay?
*A* inactive

*Q* Lab log entry: COc1cc(Nc2cc(Cl)cc(Cl)c2)nc(N)n1 — outcome as called in the assay?
*A* active

*Q* Lab log entry: O=C(O)CC1C(=O)OC2C3COC(=O)c4cc(O)c(O)c(O)c4-c4c(cc(O)c(O)c4O)C(=O)OC2C(OC(=O)c2cc(O)c(O)c4c2C1C(O)C(=O)O4)C(OC(=O)c1cc(O)c(O)c(O)c1)O3 (centres undefined) — outcome as called in the assay?
*A* inactive

*Q* Lab log entry: O=C(O)c1ccc(Cl)c(C(=O)O)c1 — outcome as called in the assay?
*A* inactive

*Q* Lab log entry: CC1=C(C)C(=O)OC1 — outcome as called in the assay?
*A* inactive

*Q* Lab log entry: CCOP(=O)(O)C1CC2C3CC=C4CC(O)CCC4(C)C3CCC2(C)C1C(C)=O (centres undefined) — outcome as called in the assay?
*A* inactive

*Q* Lab log entry: COc1ccc(C(=O)c2cc3c(ccc4ccccc43)oc2=O)cc1 — outcome as called in the assay?
*A* inactive

*Q* Lab log entry: O=C1/C(=N\O)C2CCC1C2 (centres undefined) — outcome as called in the assay?
*A* inactive

*Q* Lab log entry: COc1ccccc1-c1ccc([N+](=O)[O-])cc1[N+](=O)[O-] — outcome as called in the assay?
*A* inactive

*Q* Lab log entry: CCCNc1nc2c(s1)c1c(O)c3c(O)c(C)c4c(c32)C(=O)C(C)(O/C=C\C(OC)C(C)C(OC(C)=O)C(C)C(O)C(C)C(O)C(C)/C=C/C=C(/C)C(=O)N1)O4 (centres undefined) — outcome as called in the assay?
*A* inactive

*Q* Lab log entry: C=C(C)[C@@H]1CC[C@@H](C)C[C@H]1O — outcome as called in the assay?
*A* inactive

*Q* Lab log entry: CCCc1c(OC)c(=O)c2c(OC)cc(OC)c3c4c(OC)cc(OC)c5c(=O)c(OC)c(CCC)c(c1c23)c54 — outcome as called in the assay?
*A* active

*Q* Lab log entry: CC(O)c1cc2c(s1)C(=O)c1scc(C(C)O)c1C2=O (centres undefined) — outcome as called in the assay?
*A* active

*Q* Lab log entry: CC(O)/C=C/c1ccccc1O (centres undefined) — outcome as called in the assay?
*A* inactive

###

Experiment: NCI Yeast Anticancer Drug Screen. Data for the mec2-1 strain (AID 157)
Details: S. cerevisiae mec2-1 strain, at 50.0 µM, stronger effect = higher value
About 79,000 compounds went through this panel and 15% of them were active in at least one assay; those are over-represented in the sample as a whole.
Kindly supply the reported growth inhibition values for the records listed here.
Numbers only, in %.

Would you please look over these solved cases?
CC/C(=C\c1ccc(Cl)cc1)c1ccncc1 ... 99.5
CCOC#CCCOCc1ccccc1 ... -46.2

Give growth inhibition for each listed item.
1. N#CSCc1ccc(CSC#N)c(Br)c1
2. CC(C)NC(=O)OCc1nnn2c1CCC2
3. CCC1CCC(C(C)(C)C)C(=O)C1 (centres undefined)
4. CCCCCCCC(CCCCCCC)(C(=O)OCC)C(=O)OCC

*A*
1. 14.9
2. 0.05
3. 1.75
4. -1.65

Give growth inhibition for each listed item.
1. CC(NC(=O)NC(C)(C)C)NC(=O)C(N)CC(=O)O (centres undefined)
2. O=C1C(O)=C(c2ccccc2)C(=O)N1c1ccccc1
3. Cc1ccc(C(O)/C(=N/N)c2nc3ccc([N+](=O)[O-])cc3[nH]c2=O)cc1 (centres undefined)

*A*
[-20.1, -9.05, -20.1]

Give growth inhibition for each listed item.
1. Brc1cc(Br)c2c(c1)CN(C1CCCCC1)CO2 (tested in a mixture with another compound)
2. CSCCC(NCc1c(O)ccc2c(-c3ccccc3)cc(=O)oc12)C(=O)O (centres undefined)
3. O=C1/C(=C/c2ccccc2)SC(=S)N1C1OC(CO)C(O)C(O)C1O (centres undefined)
4. S=C(Cl)Sc1ccc(-c2ccc(SC(=S)Cl)cc2)cc1
5. CCC/C(=N/NC(=O)C1CCCO1)c1ccccc1 (centres undefined)
6. CC1(C)CC23C4COC(=O)C2CCC1C3CC4=O (centres undefined)
7. O=[N+]([O-])c1ccccc1Oc1ccccc1
8. COc1ccc(OC)c(C(C)=O)c1

*A*
3.85
-20.5
11.8
-2.5
18.4
-18.1
-8.65
-66

Give growth inhibition for each listed item.
1. CCOC(=O)c1nc2ccc(C(F)(F)F)cc2nc1NCc1ccc(OC)c(OC)c1
2. O=S(=O)(O)n1ccnc1 (tested in a mixture with another compound)
3. NC(=O)Nc1ccc([N+](=O)[O-])cc1

*A*
6.65
12.3
-2.9

Give growth inhibition for each listed item.
1. O=C(O)C1(Nc2ccc(Cl)cc2)CCCC1
2. CCSc1nc(C)nc2c1cnn2-c1ccccc1
3. CC(C)=CC1C[C@H](C2CC=C3C2(C)CCC2[C@@]3(C)C(=O)CC3[C@]2(C)C=CC(=O)[C@]3(C)CO)CO1 (some centres undefined)
4. OC1(c2ccccc2)CC2C=CC1C2 (centres undefined)

*A*
1: -6.75; 2: -6.7; 3: 78.9; 4: 8.2

###

Assay: NCI Yeast Anticancer Drug Screen. Data for the mec2-1 strain (AID 157)
Conditions: S. cerevisiae mec2-1 strain, at 50.0 µM, stronger effect = higher value
Description: Growth inhibition of yeast strains with defined genetic alterations is measured as a screen for potential anti-cancer activity. Selected strains with alterations in DNA damage repair or cell cycle control were exposed to compounds and growth inhibition was measured relative to vehicle treated controls. The strain used in this assay is mec2-1
This is part of a sample that, as a whole, favours compounds with a hit. Of some 79,000 tested, about 15% had one in any assay.
Kindly supply the reported growth inhibition values for the records listed here.
Answers are plain numbers, in %.

Would you please look over these solved cases?
CC(O)/C=C/c1ccccc1O (configuration not stated) ... 2.85
CNc1ncnc2[nH]cc([N+](=O)[O-])c12 ... 1.95
O=[N+]([O-])c1ccc(N=Nc2c(S(=O)(=O)O)cc3cc(S(=O)(=O)O)ccc3c2O)c([N+](=O)[O-])c1 ... 0.9
CC(=O)N(C)C ... -2.05
C=CCSc1nc2c(=O)[nH]cnc2n1C1OC(CO)C(O)C1O (configuration not stated) ... 4

Give growth inhibition for each listed item.
1. CCCCN(CCCC)Cc1ccnc(C)c1O
2. Cc1ccc(SCC(CF)OCn2cc(F)c(=O)[nH]c2=O)cc1 (configuration not stated)
3. CCOc1cccc(N(CC)CC)c1

*A*
1. 5.85
2. -13
3. 2.05

Give growth inhibition for each listed item.
1. O=C1COc2ccccc2OCCOCCOc2ccccc2OC1
2. CCOC(=O)c1c(/N=C/c2ccc3c(c2)OCO3)sc2c1CCCC2
3. CN1C(=O)N/C(=C\c2ccc(S(=O)(=O)N/N=C/c3ccccc3)cc2)C1=O
4. Cc1nc(C(=O)N=C(N)N)c(N)nc1-c1ccccc1

*A*
[-2.9, -23.3, 44.9, -4.3]
